Here the recorded SPOT peptide array binding signal intensity is given for each entry.
target: AgCyk3; assay: SPOT peptide array binding signal intensity (averaged, normalized) (arbitrary units (background-subtracted, floor 0; scale differs between SH3 domains)); higher = stronger binding of the SH3 domain to the peptide

Consider the following illustrative entries.
# binder, observed result
measured = [
    ("QRKSLRRPTLSKPAV", 1),
    ("PPLPRAPPVPPATFE", 0.5),
    ("SSSSTPPTLPPRRIE", 2),
    ("DRIRMFIRFPKFLLE", 5.5),
    ("KRRAPPPVPKKPSSR", 4),
    ("FPGKKSPRLPHRNKK", "≤ 0"),
    ("PVLPPPRSPNRPTLS", "≤ 0"),
    ("TKHKAPPPPPPTAET", "≤ 0"),
]

Incoming: Suppose we examine the binder IFLRISINFPLNYPN ; what SPOT peptide array binding signal intensity value has been reported?
Outgoing: 52.5

Incoming: # query: SPOT peptide array binding signal intensity of entry DDEDVPPQLPTRTKS
Outgoing: ≤ 0

Values compiled from the supplement of paper PMC4466140.
